- run.description: Clinical pharmacokinetics of mavacamten
- Format: in vivo, human
- condition: human, in vivo, oral; read-out: time to maximum concentration (Tmax)
readout.label: Tmax
Output should be the measured figure followed by the unit it is expressed in.

stdin: # get_value(readout='Tmax', item= CC(C)n1c(=O)cc(N[C@@H](C)c2ccccc2)[nH]c1=O )
stdout: 1 h

====

- Test system: CYP2C19
- run.description: Pharmacogenomics: CYP2C19 poor vs normal metabolizers, single 15 mg dose
- Assay type: in vivo, human
- condition: human, in vivo, 15 mg, CYP2C19 PMs
readout.label: half-life

stdin: # get_value(readout='half-life', item= CC(C)n1c(=O)cc(N[C@@H](C)c2ccccc2)[nH]c1=O )
stdout: 23 days

====

- run.description: Clinical pharmacokinetics of mavacamten
- Assay type: in vivo, human
- condition: human, plasma, oral, CYP2C19 normal metabolizers (NMs); read-out: terminal half-life (converted)
readout.label: half-life

stdin: # get_value(readout='half-life', item= CC(C)n1c(=O)cc(N[C@@H](C)c2ccccc2)[nH]c1=O )
stdout: 144 to 216 h

====

- Tested on: CYP2C19
- run.description: Pharmacogenomics: CYP2C19 poor vs normal metabolizers, single 15 mg dose
- Type: in vivo, human
- condition: human, in vivo, 15 mg, CYP2C19 NMs
readout.label: half-life

stdin: # get_value(readout='half-life', item= CC(C)n1c(=O)cc(N[C@@H](C)c2ccccc2)[nH]c1=O [mavacamten] )
stdout: 144 to 216 h

====

- run.description: Plasma protein binding
- Format: in vitro ADME
readout.label: fraction unbound

stdin: # get_value(readout='fraction unbound', item= CC(C)n1c(=O)cc(N[C@@H](C)c2ccccc2)[nH]c1=O [mavacamten] )
stdout: 0.02 to 0.03

====

- run.description: Clinical pharmacokinetics of mavacamten
- Assay type: in vivo, human
- condition: human, plasma, oral, CYP2C19 poor metabolizers (PMs); read-out: terminal half-life (converted)
readout.label: half-life (days)
Numeric answer only, unit days assumed.

stdin: # get_value(readout='half-life', item= CC(C)n1c(=O)cc(N[C@@H](C)c2ccccc2)[nH]c1=O )
stdout: 23

Sourced from patent US20230338378A1
